assay: gradient 5% acetonitrile 3 min, to 50% in 2 min, to 85% in 15 min, held 3 min, 100 µL/min; conditions: column: Zorbax Extend-C18 2.1 x 50 mm; eluents: water / acetonitrile, 0.1% formic acid
Measurement type: RP-LC retention time (s)

Illustrative cases are given below, each with its answer.
* COc1ccc(CN2CCc3nc(N4CCN(c5ccccc5OC)CC4)ncc3C2)cc1 | 762
* O=C(Cc1ccsc1)N1CCc2cc(-c3csc(C4CC4)n3)ccc21 | 1120
* Cc1nn(-c2ccc(N3CCCCC3)nn2)c(C)c1CCC(=O)NCCc1ccco1 | 660

(a) CCOC(=O)C1CCN([C@H]2CS(=O)(=O)C[C@@H]2S(=O)(=O)c2ccccc2)CC1
(b) Cc1ccc(C(=O)N2CC[C@H](CO)[C@H](N(C)C)C2)s1
Would you kindly point out which of a and b has the smaller RP-LC retention time figure? Could you answer with the label of the item you picked?
b
